- System: HCC-2998 colon
- test.name: NCI tumour cell line growth inhibition, 48 h
Each entry below carries its recorded TGI.

Solved cases below.
Task: Query TGI on HCC-2998 colon for `CN(C)c1ccc(C=Nc2ccc(-c3nc4ccccc4o3)cc2)cc1`
Result: 47.3 µM

Task: Item: CCOC(=O)C(NC(=O)Nc1ccccc1F)(OC)C(F)(F)F (stereo unspecified) Test system: HCC-2998 colon Read-out: TGI Value: ?
Result: > 100 µM

Task: Test system HCC-2998 colon; read-out TGI; what value for `CSC(=S)Nc1cc(C)ccn1` ?
Result: > 100 µM

Task: Requested read-out TGI, target or system HCC-2998 colon, entry `Cc1cc2c(cc1-c1cc3c(cc1C)C(C(C)C)=C(O)C(=O)/C3=C\Nc1cccc3c(N)cccc13)/C(=C/Nc1cccc3c(N)cccc13)C(=O)C(O)=C2C(C)C`
Result: > 100 µM

Task: Record CC(=O)N(CCc1ccccc1)C(C)(C#N)c1ccccc1 (stereo unspecified) : what is its TGI with HCC-2998 colon?
Result: > 100 µM

Now look at this entry.
Task: Please tell me: TGI of CC1=C(C(=O)Nc2cc(F)c(F)cc2F)C(c2cccc([N+](=O)[O-])c2)C(C(=O)Nc2ccccc2C(F)(F)F)=C(C)N1 (stereo unspecified) , system HCC-2998 colon?
Result: 36.5 µM

Data provenance: PubChem BioAssay (NCI)
